Test system: isotype control IgM
Assay: Phage ELISA, binding of phage clones to isotype control IgM
Details: Table 2B, Ph.D.7C7 library clones; 10^10 pfu/ml; OD 405-490 nm
Overview of recorded Binding of phages to control IgM for various substances
Lab note: write values as number then unit, every time.

Here are 5 substances together with their reported answers.
NNSNMPL [Cb10]
0.2 OD
NNYNMPL [Cb589]
0.1 OD
KNSXQPL [Ca4]
0.1 OD
NNSXMPL [Ca6]
0.0 OD
NNWNMPL [Ca1, Ca7]
0.1 OD

Query :: Any idea what its Binding of phages to control IgM is? The substance is NNQNMPL [Cb9]
Result :: 0.01 OD

Query :: Follow-up item: NNWKMPL [Cb4]
Result :: 0.1 OD

Query :: Follow-up item: QNSHMPL [Ca3]
Result :: 0.1 OD

Query :: Follow-up item: DWAPHFT [Cb2]
Result :: 0.2 OD

Query :: Follow-up item: NNRNMPL [Ca59, Cb1]
Result :: 0.1 OD

Query :: Follow-up item: NNSHMPL [Ca9, Cb3, Ca8, Ca10]
Result :: 0.2 OD

Query :: Follow-up item: NNSKMRL [Ca2]
Result :: 0.2 OD
